# tgt: Inward rectifier potassium channel 2 (Mus musculus)
# protocol.text: inhibition of Kir2.1 inward rectifier potassium flux – cell-based, FluxOR thallium flux, duplicate, confirmation (AID 2032)
# setup.conditions: Kir2.1-expressing cells, FluxOR thallium flux fluorescence, at 10 µM
The list shows a part of the results. Calls of active or inactive are those of the source.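 The calls were made as follows: active = Primary-screen hit whose thallium flux fell at least 3 control SD below untreated wells in both duplicates, with normal baseline fluorescence; inactive = the rest.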
Outcome codes: active, inactive

molecule: COc1ccc(C(CCNCc2ccccc2F)c2ccc(F)cc2)cc1 (centres undefined)
tgt: Inward rectifier potassium channel 2 (Mus musculus)
cat: active

molecule: CCn1c(=S)[nH]c2sc3c(c2c1=O)CCCCC3
tgt: Inward rectifier potassium channel 2 (Mus musculus)
cat: inactive

molecule: Cc1[nH][nH]c(=O)c1C(c1ccc(-c2ccc(Cl)cc2)o1)c1c(C)[nH][nH]c1=O
tgt: Inward rectifier potassium channel 2 (Mus musculus)
cat: inactive

molecule: CCC(=O)OCc1c(C(F)(F)F)nn(C)c1Oc1cccc(C(F)(F)F)c1
tgt: Inward rectifier potassium channel 2 (Mus musculus)
cat: inactive

molecule: CC(C)(c1ccccc1)c1ccc(OCCN)cc1
tgt: Inward rectifier potassium channel 2 (Mus musculus)
cat: active

molecule: CCc1ccc(NC(=O)C(=O)NNC(=O)c2cccs2)cc1
tgt: Inward rectifier potassium channel 2 (Mus musculus)
cat: inactive

molecule: CCCc1nc2sc3c(c2c(=O)n1NC(=O)CCCl)CCCC3
tgt: Inward rectifier potassium channel 2 (Mus musculus)
cat: inactive

molecule: CCC1(C)Cc2c(sc3nnn(CC(=O)Nc4ccc(Cl)cc4)c(=O)c23)CO1 (centres undefined)
tgt: Inward rectifier potassium channel 2 (Mus musculus)
cat: inactive

molecule: CN(c1ccccc1)S(=O)(=O)c1ccc(Cl)c(C(=O)OCC(=O)NCc2ccco2)c1
tgt: Inward rectifier potassium channel 2 (Mus musculus)
cat: inactive

* * *

# tgt: Short transient receptor potential channel 6 (Mus musculus)
# protocol.text: TRPC6 opening by TRPC4 activator hits – cell-based, HEK293, membrane potential dye, duplicate, selectivity assay for TRPC4 activator project, confirmation (AID 434950);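 also: 0% = buffer only wells and 100% = acetylcholine maximal-effect wells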
# setup.conditions: HEK293 TRPC6, membrane potential fluorescence, at 10 µM; hits give high values
Each item that follows carries a reported activation.

compound: CC1CC(C)CN(CCCNS(=O)(=O)c2cc(Br)cc3c2N(C(=O)C2CC2)CC3)C1 (stereo unspecified)
units.symbol: %
activation: 30
//
compound: CN1CCN(Cc2nc3c(c(=O)[nH]c(=O)n3C)n2Cc2c(F)cccc2Cl)CC1
units.symbol: %
activation: 30
//
compound: CC1CC(C)CN(CCCNC(=O)c2csc3c2CCCCC3)C1 (stereo unspecified)
units.symbol: %
activation: 87.5
//
compound: Clc1cc(Cl)cc(C2=NC(Cc3ccccc3)CO2)c1 (stereo unspecified)
units.symbol: %
activation: 25
//
compound: Nc1c(C(=O)c2ccccc2)sc2nsc(SCCN3CCCC3)c12
units.symbol: %
activation: 410
//
compound: Cc1cccc(C(=O)NC(=S)NNC(=O)Cc2ccccc2)c1
units.symbol: %
activation: 32.5
//
compound: CCOC(=O)c1ccc(NC(=O)NCCc2cnc[nH]2)cc1
units.symbol: %
activation: 38
//
compound: COC(=O)C1CCN(Cc2cn(-c3ccccc3)nc2-c2ccc3c(c2)OCO3)CC1
units.symbol: %
activation: 45
//
compound: Cc1ccccc1N1CC(O)(c2ccccc2)[N+]2=C1SCC2 (stereo unspecified)
units.symbol: %
activation: 39
//
compound: CN1C2C=C(N(CCc3ccccc3)C(=O)c3ccc(Cl)cc3)CC1CC2 (stereo unspecified)
units.symbol: %
activation: 50
//
compound: CN(C)C(CNC(=O)c1cccc(S(=O)(=O)N(C)C)c1)c1ccccc1 (stereo unspecified)
units.symbol: %
activation: 39.5
//
compound: CCOc1cc(N(CC)CC)ccc1/C=C(/C#N)c1nc2ccccc2[nH]1
units.symbol: %
activation: 86
//
compound: COc1cc2ccccc2cc1C(=O)NCC(c1cccs1)N(C)C (stereo unspecified)
units.symbol: %
activation: 59.5
//
compound: CCOC(=O)C1(Cc2ccccc2)CCN(Cc2cccn2-c2cccnc2)CC1
units.symbol: %
activation: 89
//
compound: CC(C)n1cnc2c(N(C)c3ccccc3)nc(N(CCN(C)C)Cc3ccccc3)nc21
units.symbol: %
activation: 31
//
compound: Cc1cc(Cl)cc(C)c1OCCCCCn1ccnc1
units.symbol: %
activation: 47
//
compound: CN1CCC(=O)N([C@H](CSc2ccc(Br)cc2)Cc2ccccc2)CC1
units.symbol: %
activation: 33
//
compound: CCC(=O)N1CCc2cc(Br)cc(S(=O)(=O)NCCCN(C)Cc3ccccc3)c21
units.symbol: %
activation: 55
//
compound: COc1ccc(C(CNC(=O)C(Cc2ccccc2)NC(N)=O)N(C)C)cc1 (stereo unspecified)
units.symbol: %
activation: 32
//
compound: Cc1cc(OCCn2ccnc2)cc(C)c1Cl
units.symbol: %
activation: 42
//
compound: O=C(O)C1C2C=CC(C2)C1C(=O)NC1CCN(Cc2ccccc2)CC1 (stereo unspecified)
units.symbol: %
activation: 32
//
compound: COc1ccc(C(CNC(=O)CCOc2ccccc2)N(C)C)cc1 (stereo unspecified)
units.symbol: %
activation: 45
//
compound: O=C(CC1CCCCC1)c1c(O)c2ccccc2oc1=O
units.symbol: %
activation: 33.5
//
compound: CN(C)C(CNC(=O)Nc1cccc(Cl)c1)c1cccnc1 (stereo unspecified)
units.symbol: %
activation: 30.5
//
compound: CC(COc1ccccc1)N1CCC(CO)(CCc2ccccc2)CC1 (stereo unspecified)
units.symbol: %
activation: 95.5
//
compound: Cc1cccc(OCCOCCN2CCNCC2)c1C
units.symbol: %
activation: 35
//
compound: CC(C)(C)[C@H]1C=C(C(=O)NCc2ccccc2)O[C@@H](OCc2ccc(CO)cc2)C1
units.symbol: %
activation: 24.5
//
compound: Cc1cccc(OCCC(=O)NCC(c2ccccc2)N(C)C)c1 (stereo unspecified)
units.symbol: %
activation: 52
//
compound: COc1ccc(C(CNC(=O)CSc2ccccc2C)N(C)C)cc1 (stereo unspecified)
units.symbol: %
activation: 55
//
compound: CCOC(=O)C1(CCOC)CCN(Cc2ccccc2-c2ccco2)CC1
units.symbol: %
activation: 68.5
//
compound: COC(=O)c1ccc(C(=S)NCC2(N(C)C)CCCCC2)cc1
units.symbol: %
activation: 41

* * *

# tgt: Short transient receptor potential channel 4 (Mus musculus) (UniProt Q9QUQ5)
# Sequence (Q9QUQ5 whole entry, looked up): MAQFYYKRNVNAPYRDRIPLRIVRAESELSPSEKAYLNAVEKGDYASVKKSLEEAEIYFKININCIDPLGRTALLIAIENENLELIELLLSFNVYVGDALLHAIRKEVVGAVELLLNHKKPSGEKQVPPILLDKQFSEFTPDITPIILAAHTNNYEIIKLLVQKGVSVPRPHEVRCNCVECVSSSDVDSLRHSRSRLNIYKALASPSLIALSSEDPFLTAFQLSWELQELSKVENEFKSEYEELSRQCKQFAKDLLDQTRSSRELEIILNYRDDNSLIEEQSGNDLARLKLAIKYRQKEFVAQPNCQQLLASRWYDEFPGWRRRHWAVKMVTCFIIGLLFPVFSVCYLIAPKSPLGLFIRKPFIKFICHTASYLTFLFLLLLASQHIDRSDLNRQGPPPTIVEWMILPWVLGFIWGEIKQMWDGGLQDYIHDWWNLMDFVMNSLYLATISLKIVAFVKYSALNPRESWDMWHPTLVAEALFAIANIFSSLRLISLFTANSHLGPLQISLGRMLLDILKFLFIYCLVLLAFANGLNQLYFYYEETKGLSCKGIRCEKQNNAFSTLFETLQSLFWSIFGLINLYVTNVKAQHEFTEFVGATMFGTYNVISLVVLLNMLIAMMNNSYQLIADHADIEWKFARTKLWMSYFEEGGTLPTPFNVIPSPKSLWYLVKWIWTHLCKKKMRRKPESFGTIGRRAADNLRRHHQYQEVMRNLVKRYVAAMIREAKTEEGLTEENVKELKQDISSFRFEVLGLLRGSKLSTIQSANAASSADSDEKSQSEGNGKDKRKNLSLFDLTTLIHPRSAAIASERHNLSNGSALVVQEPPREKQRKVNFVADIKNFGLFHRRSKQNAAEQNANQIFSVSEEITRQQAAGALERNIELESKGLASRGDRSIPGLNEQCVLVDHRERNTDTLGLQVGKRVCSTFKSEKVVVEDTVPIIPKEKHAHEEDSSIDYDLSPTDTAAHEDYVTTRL
# protocol.text: blockers of DAMGO-evoked TRPC4 calcium flux – cell-based, second round, Fluo4, HEK293 TRPC4beta/mu-opioid, 1 µM, confirmation (AID 2637)
# setup.conditions: at 1 µM
The source made the active and inactive calls.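 Rule for the calls: active = calcium signal ratio cut to more than 3 SD under the fully stimulated control mean yet still positive, in both repeats and the primary screen; inactive = the rest.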
Possible outcomes: label 1 (active), label 0 (inactive)

compound: O=C(Nc1ccccc1N1CCN(C(=O)c2ccc(Cl)cc2)CC1)c1cccc([N+](=O)[O-])c1
tgt: Short transient receptor potential channel 4 (Mus musculus) (UniProt Q9QUQ5)
cat: label 1
//
compound: CN(C)C(CNC(=O)c1oc2ccccc2c1CSc1ncn[nH]1)c1ccco1 (stereo not drawn)
tgt: Short transient receptor potential channel 4 (Mus musculus) (UniProt Q9QUQ5)
cat: label 1
//
compound: Cc1cccc(NC(=O)CNC(=O)CN2C(=O)NC3(CCCCC3C)C2=O)c1C (stereo not drawn)
tgt: Short transient receptor potential channel 4 (Mus musculus) (UniProt Q9QUQ5)
cat: label 0
//
compound: Oc1ccc(-c2csc(-c3ccccc3)n2)cc1O
tgt: Short transient receptor potential channel 4 (Mus musculus) (UniProt Q9QUQ5)
cat: label 0
//
compound: CCOC(=O)c1c(NC(=O)C(C)Sc2nnc(C)c(=O)[nH]2)sc2c1CCCC2 (stereo not drawn)
tgt: Short transient receptor potential channel 4 (Mus musculus) (UniProt Q9QUQ5)
cat: label 1
//
compound: Cn1c(N2CCN(C(=O)Nc3ccc(C(F)(F)F)cc3)CC2)nc2ccccc21
tgt: Short transient receptor potential channel 4 (Mus musculus) (UniProt Q9QUQ5)
cat: label 0
//
compound: COC(=O)c1ccc(/C=N/N2CCN(Cc3ccc(C)cc3C)CC2)cc1
tgt: Short transient receptor potential channel 4 (Mus musculus) (UniProt Q9QUQ5)
cat: label 0
//
compound: CC(C)c1ccc2c(c1)C1Cc3ccccc3C1N2 (stereo not drawn)
tgt: Short transient receptor potential channel 4 (Mus musculus) (UniProt Q9QUQ5)
cat: label 0
//
compound: COc1ccc(NS(=O)(=O)c2csc(C(N)=O)c2)cc1OC
tgt: Short transient receptor potential channel 4 (Mus musculus) (UniProt Q9QUQ5)
cat: label 0
//
compound: O=[N+]([O-])c1ccc(N2CCN(CCOc3nonc3-c3ccccc3)CC2)c(Cl)c1
tgt: Short transient receptor potential channel 4 (Mus musculus) (UniProt Q9QUQ5)
cat: label 0
//
compound: CC1=CC(=O)C(C(C)C)=C/C1=N/OS(=O)(=O)c1ccccc1
tgt: Short transient receptor potential channel 4 (Mus musculus) (UniProt Q9QUQ5)
cat: label 0
//
compound: COc1ccccc1N(C(=O)c1snc(C(N)=O)c1N)C(C(=O)NCc1ccccc1)c1ccc(C)o1 (stereo not drawn)
tgt: Short transient receptor potential channel 4 (Mus musculus) (UniProt Q9QUQ5)
cat: label 1
//
compound: O=C(C1=C[C@H](c2ccc(C(F)(F)F)cc2)C[C@H](OCCCCO)O1)N1CCOCC1
tgt: Short transient receptor potential channel 4 (Mus musculus) (UniProt Q9QUQ5)
cat: label 0
//
compound: CCOc1cc2[nH]c(=S)n(C3CC3)c(=O)c2cc1OCC
tgt: Short transient receptor potential channel 4 (Mus musculus) (UniProt Q9QUQ5)
cat: label 0
//
compound: Cc1c(C(=O)NCC(c2ccco2)N(C)C)oc2c(Cl)cccc12 (stereo not drawn)
tgt: Short transient receptor potential channel 4 (Mus musculus) (UniProt Q9QUQ5)
cat: label 1
//
compound: C1CCN(c2nc(N3CCCCC3)nc(N3CCNCC3)n2)CC1
tgt: Short transient receptor potential channel 4 (Mus musculus) (UniProt Q9QUQ5)
cat: label 0
//
compound: O=C(CN1CCCC1)N1c2ccccc2Sc2ccc(C(F)(F)F)cc21
tgt: Short transient receptor potential channel 4 (Mus musculus) (UniProt Q9QUQ5)
cat: label 0
//
compound: CC1CC(C)CN(CCCNC(=O)c2ccc3c(c2)N(Cc2ccccc2)C(=O)c2ccccc2S3=O)C1 (stereo not drawn)
tgt: Short transient receptor potential channel 4 (Mus musculus) (UniProt Q9QUQ5)
cat: label 0
//
compound: COC(=O)c1ccc(NC(=O)CCN2CCN(Cc3ccccc3)CC2)cc1
tgt: Short transient receptor potential channel 4 (Mus musculus) (UniProt Q9QUQ5)
cat: label 0
//
compound: COc1ccc(N2CCN(C3CCCCC3NS(=O)(=O)c3ccc(Cl)cc3)CC2)cc1 (stereo not drawn)
tgt: Short transient receptor potential channel 4 (Mus musculus) (UniProt Q9QUQ5)
cat: label 0
//
compound: c1ccc(Nc2n[nH]nc2-c2ccccc2)cc1
tgt: Short transient receptor potential channel 4 (Mus musculus) (UniProt Q9QUQ5)
cat: label 1
//
compound: O=S(=O)(Cc1ccccc1)N1CCC(c2nc(-c3cccs3)no2)CC1
tgt: Short transient receptor potential channel 4 (Mus musculus) (UniProt Q9QUQ5)
cat: label 0
//
compound: Oc1cccc(C(=S)N2CCN(Cc3ccccc3)CC2)c1
tgt: Short transient receptor potential channel 4 (Mus musculus) (UniProt Q9QUQ5)
cat: label 0
//
compound: Cc1ccc(C(=O)OCCN2CCN(c3ncc(C(F)(F)F)cc3Cl)CC2)cc1
tgt: Short transient receptor potential channel 4 (Mus musculus) (UniProt Q9QUQ5)
cat: label 0
//
compound: COc1cc(C2c3c(-c4ccccc4)n[nH]c3C(=O)N2c2ccccc2)ccc1O (stereo not drawn)
tgt: Short transient receptor potential channel 4 (Mus musculus) (UniProt Q9QUQ5)
cat: label 0
//
compound: CC(CCc1ccc(O)cc1)N(C)CCc1ccccc1 (stereo not drawn)
tgt: Short transient receptor potential channel 4 (Mus musculus) (UniProt Q9QUQ5)
cat: label 0
//
compound: CCCCCc1ccc(OCCCC[n+]2ccccc2)c(CCCCC)c1
tgt: Short transient receptor potential channel 4 (Mus musculus) (UniProt Q9QUQ5)
cat: label 0
//
compound: c1ccc(-c2nc(N3CCNCC3)nc3ccccc23)cc1
tgt: Short transient receptor potential channel 4 (Mus musculus) (UniProt Q9QUQ5)
cat: label 0
